Target: CAT1 (cationic amino acid transporter 1, CAT1/SLC7A1) (Homo sapiens)
Construct: full-length human transporter stably transfected in HEK cells (HEK-CAT1); net uptake against HEK-VC vector control cells
Sequence (P30825 whole entry): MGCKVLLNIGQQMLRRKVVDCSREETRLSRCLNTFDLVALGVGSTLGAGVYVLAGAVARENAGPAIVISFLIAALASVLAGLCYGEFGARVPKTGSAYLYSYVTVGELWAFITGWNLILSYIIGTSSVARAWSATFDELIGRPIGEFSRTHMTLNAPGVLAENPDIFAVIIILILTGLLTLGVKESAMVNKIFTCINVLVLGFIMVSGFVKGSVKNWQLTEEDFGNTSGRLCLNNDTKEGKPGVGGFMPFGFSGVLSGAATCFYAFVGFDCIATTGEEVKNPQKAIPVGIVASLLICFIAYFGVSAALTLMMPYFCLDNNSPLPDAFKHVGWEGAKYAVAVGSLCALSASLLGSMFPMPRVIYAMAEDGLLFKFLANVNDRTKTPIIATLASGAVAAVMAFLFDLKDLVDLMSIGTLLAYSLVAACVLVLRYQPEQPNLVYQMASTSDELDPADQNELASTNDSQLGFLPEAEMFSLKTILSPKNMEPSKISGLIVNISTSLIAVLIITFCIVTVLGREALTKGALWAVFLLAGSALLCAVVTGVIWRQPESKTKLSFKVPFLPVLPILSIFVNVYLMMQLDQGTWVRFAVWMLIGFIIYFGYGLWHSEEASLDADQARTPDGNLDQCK
Assay: cell-based
Parameters: species or system HEK-CAT1 (HEK293 stably transfected); Inhibition of net CAT1-mediated [3H]-ADMA (1 uM) uptake, 2.5 min, scintillation counting, vector control subtracted
Conditions: HEK293; ADMA 1 uM as substrate; read-out: % Inhibition of ADMA uptake at 200 µM
Metric name: inhibition at 200 µM

Known inhibition at 200 µM results, listed for orientation:
Compound: CCc1nc(N)nc(N)c1-c1ccc(Cl)cc1 [Pyrimethamine]
Tgt: CAT1 (cationic amino acid transporter 1, CAT1/SLC7A1) (Homo sapiens)
Metric name: inhibition at 200 µM
Reported value: 23.4%
--
Compound: c1c[nH]cn1 [Imidazole]
Tgt: CAT1 (cationic amino acid transporter 1, CAT1/SLC7A1) (Homo sapiens)
Metric name: inhibition at 200 µM
Reported value: 20.7%
--
Compound: CCCC1O[C@@H]2C[C@H]3[C@@H]4CCC5=CC(=O)C=C[C@]5(C)[C@H]4[C@@H](O)C[C@]3(C)[C@]2(C(=O)CO)O1 (stereo partly shown) [Budesonide]
Tgt: CAT1 (cationic amino acid transporter 1, CAT1/SLC7A1) (Homo sapiens)
Metric name: inhibition at 200 µM
Reported value: -47.7%
--
Compound: C=C[C@H]1CN2CC[C@H]1C[C@@H]2[C@@H](O)c1ccnc2ccc(OC)cc12 [Quinidine]
Tgt: CAT1 (cationic amino acid transporter 1, CAT1/SLC7A1) (Homo sapiens)
Metric name: inhibition at 200 µM
Reported value: -19.6%
--
Compound: O=C(O)CCCc1ccc(N(CCCl)CCCl)cc1 [Chlorambucil]
Tgt: CAT1 (cationic amino acid transporter 1, CAT1/SLC7A1) (Homo sapiens)
Metric name: inhibition at 200 µM
Reported value: 13.9%

Task: Given the entry N=C(N)NC(=O)c1nc(Cl)c(N)nc1N [Amiloride] , report its measured inhibition at 200 µM.
Result: -17.1%

Task: Given the entry C[C@H]1O[C@@H](O[C@H]2[C@@H](O)C[C@H](O[C@H]3[C@@H](O)C[C@H](O[C@H]4CC[C@@]5(C)[C@H](CC[C@@H]6[C@@H]5C[C@@H](O)[C@]5(C)[C@@H](C7=CC(=O)OC7)CC[C@]65O)C4)O[C@@H]3C)O[C@@H]2C)C[C@H](O)[C@@H]1O [Digoxin] , report its measured inhibition at 200 µM.
Result: 14.4%

Task: Given the entry CN(C)CCCN1c2ccccc2CCc2ccccc21 [Imipramine] , report its measured inhibition at 200 µM.
Result: 14.1%

Task: Given the entry Nc1nc(N)c2nc(-c3ccccc3)c(N)nc2n1 [Triamterene] , report its measured inhibition at 200 µM.
Result: -10.6%

Task: Given the entry C[C@]12C=CC(=O)C=C1CC[C@@H]1[C@@H]2[C@@H](O)C[C@@]2(C)[C@H]1CC[C@]2(O)C(=O)CO [Prednisolone] , report its measured inhibition at 200 µM.
Result: 13.4%

Task: Given the entry OCCN1CCN(CCCN2c3ccccc3C=Cc3ccccc32)CC1 [Opipramol] , report its measured inhibition at 200 µM.
Result: -1%

====

Target: CAT1 (cationic amino acid transporter 1, CAT1/SLC7A1) (Homo sapiens)
Construct: full-length human transporter stably transfected in HEK cells (HEK-CAT1); net uptake against HEK-VC vector control cells
Experiment: cell-based
Set-up: species or system HEK-CAT1 (HEK293 stably transfected); Inhibition of net CAT1-mediated [3H]-L-homoarginine (1 uM) uptake, 2.5 min, scintillation counting, vector control subtracted
Conditions: HEK293; L-homoarginine 1 uM as substrate; read-out: % Inhibition of L-homoarginine uptake at 200 µM
Metric name: inhibition at 200 µM (%)
Return type: number; implicit unit %.

Known inhibition at 200 µM results, listed for orientation:
Compound: CCOC(=O)[C@H](CCc1ccccc1)N[C@H]1CCc2ccccc2N(CC(=O)O)C1=O [Benazepril]
Tgt: CAT1 (cationic amino acid transporter 1, CAT1/SLC7A1) (Homo sapiens)
inhibition at 200 µM [%]: 5.8
--
Compound: C[C@]12CCC(=O)C=C1CC[C@H]1[C@@H]3CC[C@](O)(C(=O)CO)[C@@]3(C)C[C@H](O)[C@@]12F [Fludrocortisone]
Tgt: CAT1 (cationic amino acid transporter 1, CAT1/SLC7A1) (Homo sapiens)
inhibition at 200 µM [%]: -15.1
--
Compound: CN1CCC(=C2c3ccccc3CC(=O)c3sccc32)CC1 [Ketotifen]
Tgt: CAT1 (cationic amino acid transporter 1, CAT1/SLC7A1) (Homo sapiens)
inhibition at 200 µM [%]: 10.9

Task: Given the entry CC12CC3CC(C)(C1)CC(N)(C3)C2 [Memantine] , report its measured inhibition at 200 µM.
Result: -16.6

Task: Given the entry Nc1nc(NC2CC2)c2ncn([C@H]3C=C[C@@H](CO)C3)c2n1 [Abacavir] , report its measured inhibition at 200 µM.
Result: -9.8

Task: Given the entry CN(C)C(=O)C(CCN1CCC(O)(c2ccc(Cl)cc2)CC1)(c1ccccc1)c1ccccc1 [Loperamide] , report its measured inhibition at 200 µM.
Result: -2.7

Task: Given the entry COC(=O)[C@H]1[C@H]2C[C@@H]3c4[nH]c5cc(OC)ccc5c4CCN3C[C@H]2C[C@@H](OC(=O)c2cc(OC)c(OC)c(OC)c2)[C@@H]1OC [Reserpine] , report its measured inhibition at 200 µM.
Result: 12.5

Task: Given the entry C=CC[C@@H]1/C=C(\C)C[C@H](C)C[C@H](OC)[C@H]2O[C@@](O)(C(=O)C(=O)N3CCCC[C@H]3C(=O)O[C@H](/C(C)=C/[C@@H]3CC[C@@H](O)[C@H](OC)C3)[C@H](C)[C@@H](O)CC1=O)[C@H](C)C[C@@H]2OC [Tacrolimus] , report its measured inhibition at 200 µM.
Result: 13.4

Task: Given the entry CC1(C)S[C@@H]2[C@H](NC(=O)[C@H](N)c3ccc(O)cc3)C(=O)N2[C@H]1C(=O)O [Amoxicillin] , report its measured inhibition at 200 µM.
Result: 8.8
